# assay-notes: NCI Yeast Anticancer Drug Screen. Data for the bub3 strain (AID 167)
# experimental-setup: S. cerevisiae bub3 mutant strain, at 50.0 µM
About 79,000 compounds went through this panel and 15% of them were active in at least one assay; those are over-represented in the sample as a whole. Active and inactive are the calls of the source. No stated cut-off is given here; in the data, active means growth inhibition above about 70%; inactive means the rest.
Entry note: the call must match one of true (active), false (inactive)

A selection of reference data follows.
Hey, what did the test say about OC1CN(C2CCCCC2)CC1C1(O)CCN(C2CCCCC2)C1 (configuration not stated) ?
false

Hey, what did the test say about CC1CCC2(OC1)OC1CC3C4CCC5CC(OC6OC(COC7OC(CO)C(O)C(O)C7O)C(OC7OC(C)C(O)C(O)C7O)C(O)C6OC6OC(CO)C(O)C(O)C6O)CCC5(C)C4CCC3(C)C1C2C (configuration not stated) ?
true

Hey, what did the test say about `C=C(CN1CCOCC1)C(=O)c1ccccc1` ?
true

Hey, what did the test say about `c1ccc2c(c1)CCc1[nH]c3c(c1-2)-c1ccccc1CC3` ?
true

Hey, what did the test say about COc1cccc(NC(=S)NC(Cc2ccccc2)c2ccccc2)c1 (configuration not stated) ?
true

More entries:
Hey, what did the test say about Cc1ccc(N=Nc2c(C)c(C#N)c(=S)n(C3OC(CO)C(O)C(O)C3O)c2-c2ccccc2)cc1 (configuration not stated) ?
false

Hey, what did the test say about `CCC[CH2][Sn]([CH2]CCC)([O]C(=O)c1ccc(C)c(N)c1)[O]C(=O)c1ccc(C)c(N)c1` ?
true

Hey, what did the test say about CCCCCCCCCCC(C(=O)OCCCC)P(=O)(OCCCC)OCCCC (configuration not stated) ?
false

Hey, what did the test say about `Clc1ccc2nc(CCSCCc3nc4ccc(Cl)cc4[nH]3)[nH]c2c1` ?
true

Hey, what did the test say about CCCCCC(C)NCCOC(=O)c1ccccc1 (configuration not stated) ?
true

Hey, what did the test say about `CCS(=O)(=O)/C=C\S(=O)(=O)CC` ?
true

Hey, what did the test say about `O=C1c2cccc3cc([N+](=O)[O-])cc(c23)C(=O)N1O` ?
true

Hey, what did the test say about `Cc1ccc(SSCCCCS(=O)O)cc1` ?
true

Hey, what did the test say about `CCOc1ccc2c(ccc(/C=C\c3cc(C)c4cccnc4c3O)[n+]2C)c1` ?
true

Hey, what did the test say about `CCn1c2ccccc2n2c(=O)cc(-c3ccccc3)c(C#N)c12` ?
false

Hey, what did the test say about `N#Cc1ccc(Cl)cc1[N+](=O)[O-]` ?
true

Hey, what did the test say about `CC1(C)CC(N(C(=O)/C=C/c2ccc([N+](=O)[O-])o2)C2CCCCC2)CC(C)(C)N1` ?
false

Hey, what did the test say about `O=c1c2cc3c(cc2c2cccc4c2n1CCC4)OCO3` ?
false

Hey, what did the test say about `C/C(=N/O)c1cccc(C(F)(F)F)c1` ?
false

Hey, what did the test say about `O=C(CBr)N1c2ccccc2Sc2ccc3ccccc3c21` ?
true

Hey, what did the test say about CCOC(=O)CN1CCCC(C(=O)CC2(O)C3(Cl)C4(Cl)C5(Cl)C(Cl)(Cl)C6(Cl)C4(Cl)C2(Cl)C6(Cl)C53Cl)C1 (configuration not stated) ?
false

Hey, what did the test say about `CCCCCCCCCCCCCC1=NCC(C)(C)N1` ?
true

====

# assay-notes: NCI Yeast Anticancer Drug Screen. Data for the rad50 strain (AID 155);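 further: 0% = growth of vehicle-only cultures of the same strain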
# experimental-setup: S. cerevisiae rad50 strain growth inhibition; at 50.0 µM; active compounds read high
About 79,000 compounds went through this panel and 15% of them were active in at least one assay; those are over-represented in the sample as a whole.
observation-type: growth inhibition (%)
Give bare numbers, in %.

growth inhibition measured on `Cc1cccc[n+]1CC(=O)c1cccc(O)c1` = -11.1

Dear colleague, could you send me growth inhibition for each of the items below? Thanks.
1. Cc1ccc(Sc2ccc(C)cc2[N+](=O)[O-])c([N+](=O)[O-])c1
2. ONC(=Nc1cccc2ccccc12)C(=Nc1cccc2ccccc12)NO
3. CC1CCCN(CC(O)CN2CCCc3ccccc32)C1 (stereo unspecified)
4. O=C(O)C(O)Cc1ccc(O)cc1 (stereo unspecified)
5. CC(CCOP(=O)(O)OCCC(C)CC(C)(C)C)CC(C)(C)C (stereo unspecified)

[2.7, 33.9, 97.9, -3.2, 11.8]
